Where these numbers come from: PubChem BioAssay (NCI)

- System: NCI-H226 lung
- experiment_summary: NCI tumour cell line growth inhibition, 48 h
Give TGI for every item shown.
I only need the number, in µM, no unit after it.

-- ask Give me measured TGI, please, for this compound: Cc1c(C2Nc3ccccc3C2C)[nH]c2ccccc12 (centres undefined)
-- reply 31.3

-- ask Entry `CO[C@H]1[C@@H](O)[C@@H](C)O[C@@H](O[C@H]2CC[C@@]3(C)[C@H](CC[C@@H]4[C@@H]3CC[C@]3(C)[C@@H](C5=CC(=O)OC5)[C@@H](OC(C)=O)C[C@]43O)C2)[C@@H]1O` needs its TGI filled in; supply it.
-- reply 0.411

-- ask Could you please provide reported TGI for `Cc1cn2c(/C=C3/C(=O)Nc4ccccc43)c(-c3ccc(Cl)cc3)nc2s1` ? Thanks!
-- reply 21.3

-- ask Report measured TGI; entry is `Cc1ccc(N(CSc2ccc(Cl)cc2)CSc2ccc(Cl)cc2)cc1`
-- reply 2.45

-- ask Could you please provide reported TGI for COc1cc(NC(C)CCCN)c2nccc(C)c2c1OC (centres undefined) ? Thanks!
-- reply 43

-- ask Give a short answer stating reported TGI for `Nc1nc(Nc2ccccc2)c2ncn(Cc3cc4c(cc3Br)OCO4)c2n1` .
-- reply 31.5

-- ask Fill in reported TGI for this entry: COC(=O)[C@@H](NC(=O)[C@@H](OC)[C@@H]1Cc2cc3cc(OC4CC(OC5CC(O)C(O)C(C)O5)C(O)C(C)O4)c(C)c(O)c3c(O)c2C(=O)[C@H]1OC1CC(OC2CC(OC3CC(C)(O)C(O)C(C)O3)C(O)C(C)O2)C(O)C(C)O1)C(C)C (some centres undefined)
-- reply 0.963

-- ask Read the entry `c1ccc2c3ccn4cc5c(cc4c-3nc2c1)CCCC5` and write its reported TGI.
-- reply 10.2

-- ask State its TGI: `C=C1C(=O)O[C@H]2[C@H]1[C@@H](OC(=O)C=C(C)C)CC1=C[C@@H](C[C@@]3(C)O[C@@H]23)OC1=O`
-- reply 36.2

* * *

- Test system: RXF 393 renal
- experiment_summary: NCI tumour cell line growth inhibition, 48 h
test_readout: TGI

-- ask Assign TGI to the following record: COc1cc(NC(C)CCCN)c2nccc(C)c2c1OC (centres undefined)
-- reply 40.3 µM

-- ask Output measured TGI for this item: `OCCCCC#Cc1ccccc1C#Cc1cccc(O)c1`
-- reply 13.9 µM

-- ask Using known records, supply TGI for `CCOC(=O)C1=C(Nc2cccc(OC)c2)OCC1=O`
-- reply > 100 µM

-- ask # return recorded TGI for entry O=C1/C(=C\c2ccc([N+](=O)[O-])o2)SC2N=C(COc3ccc(Cl)cc3)NN12 (centres undefined)
-- reply 31.6 µM

* * *

- Test system: SNB-75 CNS
- experiment_summary: NCI tumour cell line growth inhibition, 48 h
Quick rule: TGI of at least 30 µM means Fulfilled, below that means Not fulfilled.

-- ask Check this compound for TGI at or above 30 µM: `O=c1cc(-c2ccccc2)[nH]c2cc3c(cc12)OCO3`
-- reply Fulfilled

-- ask Does TGI meet or surpass 30 µM for `O=C1CSC(Cc2nc3ccccc3[nH]2)=N1` ?
-- reply Not fulfilled

-- ask Does TGI meet or surpass 30 µM for `COC(=O)c1ccc(/C=C2\N=C(C)OC2=O)cc1` ?
-- reply Fulfilled

-- ask Does the reported TGI for `CC(=O)Oc1ccccc1C(=O)N=C1[Se]CCCN1C(=O)c1ccccc1OC(C)=O` fall at or above the 30 µM mark?
-- reply Not fulfilled

-- ask # check: TGI of `COc1ccc(-c2cc(-c3cccn3C)c(C#N)c(N)n2)cc1OC` is greater than or equal to 30 µM
-- reply Fulfilled

-- ask For this compound, is measured TGI 30 µM or higher? `O=S(O)CCCCSSCc1ccccc1CSSCCCCS(=O)O`
-- reply Fulfilled

-- ask Is the recorded value of TGI equal to or greater than 30 µM for this compound? `CC1(C)c2ccccc2C(=O)C12CCC(=O)CC2`
-- reply Fulfilled

-- ask Answer whether TGI of `O=C(CSc1nnc(-c2ccccc2NC(=O)C(F)(F)F)c(=O)[nH]1)NC(=O)Nc1ccccc1` is greater than or equal to 30 µM.
-- reply Fulfilled

-- ask Determine whether measured TGI meets or exceeds 30 µM for `CC(C)(C)N1CC2(CCCCC2)C1=O`
-- reply Fulfilled

-- ask Assess whether reported TGI for `CC(=O)c1sc2c(c1OC(=O)c1cccs1)c(=O)n(-c1ccccc1)c(=S)n2-c1ccccc1` sits at 30 µM or higher.
-- reply Fulfilled

-- ask Check if TGI >= 30 µM (inclusive). Item: CCCCCC(C[N+]1(C)CCOCC1)C(=O)/C=C/c1ccccc1 (stereo unspecified)
-- reply Not fulfilled

-- ask Hello, I need to know if `COc1c(C)c2c(c(C)c1Cl)Oc1c(C=O)c(O)c(Cl)c(C)c1C(=O)O2` has measured TGI not below 30 µM. Thanks!
-- reply Fulfilled

-- ask Please indicate if the recorded TGI for `CC(=O)O[C@@H]1C[C@]2(C(C)C)O[C@@]1(C)[C@@H]1CCC(C)=C1[C@@H]2OC(=O)/C=C/c1ccccc1` meets or exceeds 30 µM.
-- reply Fulfilled

-- ask Hello, I need to know if CN(C)C1=Nc2ccccc2C(=S)N2CSCC12 (stereo unspecified) has measured TGI not below 30 µM. Thanks!
-- reply Fulfilled

-- ask Record CC1(C#N)CC(C)(C)C(/C=C2/CC(C)(C)C(/C=C3/OC(=N)CC3(C)C)=N2)=N1 (stereo unspecified) ; criterion: TGI no lower than 30 µM. Met?
-- reply Fulfilled

-- ask Does TGI meet or surpass 30 µM for `Cc1sc2nc(NCCc3c[nH]c4ccc(Cl)cc34)[nH]c(=O)c2c1C` ?
-- reply Not fulfilled

-- ask Can `CO[C@H]1[C@@H](O)[C@@H](C)O[C@@H](O[C@H]2CC[C@@]3(C)[C@H](CC[C@@H]4[C@@H]3CC[C@]3(C)[C@@H](C5=CC(=O)OC5)[C@@H](OC(C)=O)C[C@]43O)C2)[C@@H]1O` be said to have TGI at or above 30 µM?
-- reply Not fulfilled

-- ask Check this compound for TGI at or above 30 µM: Nc1ccc(C(=O)NN2C(=O)C(Cl)C2c2ccccc2Cl)cc1 (stereo unspecified)
-- reply Fulfilled

-- ask Is TGI for O=C1C(Cl)C(c2ccccc2)N1n1cnc2ccccc2c1=O (stereo unspecified) at or above 30 µM?
-- reply Fulfilled

-- ask Is TGI for `COC(=O)C(=C/c1ccc(OC)cc1)/C(C(=O)O)=C(/C)c1ccccc1` at or above 30 µM?
-- reply Fulfilled
